Where do these numbers come from? They come from patent US20170089928A1.

# assayed system: T1, Heat-denatured BSA (bovine serum albumin autoclaved for 15 minutes) (bovine, UniProt P02769 25-607)
# T1 construct: also called heat-denatured BSA solution; reagent for detection
# T1 sequence (P02769 25-607 limits assumed): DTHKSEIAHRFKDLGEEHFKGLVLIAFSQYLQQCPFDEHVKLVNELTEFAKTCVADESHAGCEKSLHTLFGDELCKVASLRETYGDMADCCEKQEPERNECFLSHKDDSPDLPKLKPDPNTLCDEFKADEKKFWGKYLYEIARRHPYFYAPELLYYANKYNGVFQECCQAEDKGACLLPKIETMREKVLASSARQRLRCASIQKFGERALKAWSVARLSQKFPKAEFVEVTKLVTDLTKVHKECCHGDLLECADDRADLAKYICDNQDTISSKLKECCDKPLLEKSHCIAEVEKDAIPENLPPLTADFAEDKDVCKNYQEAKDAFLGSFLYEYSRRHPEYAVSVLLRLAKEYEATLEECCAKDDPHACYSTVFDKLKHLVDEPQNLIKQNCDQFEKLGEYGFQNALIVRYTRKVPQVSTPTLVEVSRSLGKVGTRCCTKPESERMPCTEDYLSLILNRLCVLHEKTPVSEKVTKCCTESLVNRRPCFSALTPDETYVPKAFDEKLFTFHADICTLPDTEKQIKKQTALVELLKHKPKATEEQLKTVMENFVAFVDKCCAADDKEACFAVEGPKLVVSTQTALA
# procedure summary: turbidity (OD550), Hill fit with competitive inhibition term; serum at 100-fold dilution
quantity kind: pKd
Answer as the number alone; pKd is minus log10 of concentration in mol/L.

Per the records, this binder ( SYSMEHFRWGKPVGKKRRPVKVYP (also called basic peptide of interest) [partial ACTH peptide consisting of the amino acids of positions 1 to 24 of ACTH] ) has pKd equal to 4.54
